experimental_target: AmpC β-lactamase from E. coli (Escherichia coli, UniProt P00811)
Sequence (P00811 20-377): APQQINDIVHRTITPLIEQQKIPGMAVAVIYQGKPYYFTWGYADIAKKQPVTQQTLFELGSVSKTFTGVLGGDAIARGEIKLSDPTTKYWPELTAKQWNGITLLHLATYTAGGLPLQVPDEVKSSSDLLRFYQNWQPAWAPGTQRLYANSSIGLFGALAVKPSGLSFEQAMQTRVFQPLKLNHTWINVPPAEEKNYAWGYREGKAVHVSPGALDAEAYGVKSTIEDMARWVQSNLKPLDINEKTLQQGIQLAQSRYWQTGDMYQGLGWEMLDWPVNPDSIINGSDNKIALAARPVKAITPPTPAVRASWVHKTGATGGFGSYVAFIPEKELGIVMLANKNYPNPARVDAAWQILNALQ
protocol_notes: biochemical
Type: biochemical
condition_info: read-out: Ki AmpC
quantity_kind: pKi
The scale used: pKi is minus the common logarithm of the concentration in molar units.

Documented pKi of `OB(O)c1csc2ccccc12` : 6.11

###

Tested on: E. coli RYC1000 harboring a plasmid coding for a mutant of AmpC from Enterobacter (ECR-AmpCEnM)
protocol_notes: microbe, parasite or virus in culture
Type: cell-based, Escherichia coli
condition_info: Table 4A; ECR-AmpCEnM; proportion 4/1
quantity_kind: MIC of amoxicillin plus inhibitor (µg/mL)
Please respond with the number in µg/mL and leave the unit unwritten.

Documented MIC of amoxicillin plus inhibitor of `C1COB([C@@H]2CCOC2)OCCN1` : 64

Documented MIC of amoxicillin plus inhibitor of `OB(O)c1ccc(-c2ccc(B(O)O)cc2)cc1` : 128

Documented MIC of amoxicillin plus inhibitor of `OB(O)c1cc2ccccc2c2ccccc12` : 64

Documented MIC of amoxicillin plus inhibitor of `OB(O)c1cccs1` : 32

Documented MIC of amoxicillin plus inhibitor of C[C@]1(Cn2ccnn2)[C@H](C(=O)O)N2C(=O)C[C@H]2S1(=O)=O [TAZO, Tazobactam, reference compound] : 16

###

For each entry below, report its Ki value.
experimental_target: AmpC β-lactamase from E. coli (Escherichia coli)
protocol_notes: biochemical
Assay type: biochemical
condition_info: Ki E. coli AmpC
Please respond with the number in µM and leave the unit unwritten.

Documented Ki of OB(O)c1cc2ccccc2o1 [BZBF2B, benzo[b]furan-2-boronic acid] : 0.07

Documented Ki of CN(C)c1cccc2c(S(=O)(=O)Nc3cccc(B(O)O)c3)cccc12 [NSULFB, m-(dansylamidophenyl)-boronic acid, reference compound] : 1.6

Documented Ki of `OB(O)c1ccc(Br)cc1` : 2.6

###

experimental_target: AmpC β-lactamase from E. coli (Escherichia coli, UniProt P00811)
protocol_notes: biochemical
Type: biochemical
condition_info: Example 1; read-out: Ki for AmpC
quantity_kind: pKi
The scale used: pKi is minus the common logarithm of the concentration in molar units.

Documented pKi of `OB(O)c1ccc2ccccc2c1` : 5.07

Documented pKi of `OB(O)c1ccc(-c2ccc(B(O)O)cc2)cc1` : 6.74

###

experimental_target: AmpC β-lactamase from E. coli (Escherichia coli)
protocol_notes: biochemical
Format: biochemical
condition_info: read-out: Ki for AmpC
quantity_kind: Ki
The answer should read as a number with its unit following.

Documented Ki of OB(O)[C@@H]1CCOC1 [(R)-3-tetrahydrofuranyl-boronic acid] : 1.4 µM

Documented Ki of OB(O)[C@H]1CCOC1 [(S)-3-tetrahydrofuranylboronic acid] : 15.8 µM

Documented Ki of OB(O)c1ccsc1 [TH3B, thiopene-3-boronic acid] : 22.1 µM

###

experimental_target: TEM-1 β-lactamase from E. coli (Escherichia coli)
Construct: gift: Natalie Strynadka, University of Alberta
Sequence (P62593 24-286 limits assumed): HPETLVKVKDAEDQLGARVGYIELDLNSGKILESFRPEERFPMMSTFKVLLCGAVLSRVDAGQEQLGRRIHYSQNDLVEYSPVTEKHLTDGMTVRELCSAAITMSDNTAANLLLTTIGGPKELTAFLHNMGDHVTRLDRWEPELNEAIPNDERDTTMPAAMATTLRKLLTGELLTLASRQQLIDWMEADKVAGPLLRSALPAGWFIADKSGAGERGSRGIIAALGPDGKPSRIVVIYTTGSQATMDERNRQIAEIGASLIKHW
protocol_notes: Inhibition of TEM-1 β-lactamase, spectrophotometric assay (FAP substrate)
Format: biochemical
condition_info: Tables 2A/2B; pH 7.0, 25° C., 100 μM FAP; N.I. = no inhibition observed at an inhibitor concentration of 100 μM; read-out: Ki E. coli TEM-1
quantity_kind: log10 Ki (log10 of the value in µM)
Transform log10 | Measure Ki | Unit µM

Documented log10 Ki of `OB(O)c1cccc2ccccc12` : 1.53

Documented log10 Ki of `Oc1ccc(N=Nc2ccc(Br)cc2)cc1B1OB(c2cc(N=Nc3ccc(Br)cc3)ccc2O)OB(c2cc(N=Nc3ccc(Br)cc3)ccc2O)O1` : 0.08

Documented log10 Ki of `OB(O)c1ccsc1` : 2.00

Documented log10 Ki of `OB(O)c1cccc(C(F)(F)F)c1` : 1.93

Documented log10 Ki of OB(O)c1ccc(B(O)O)cc1 [B14DA] : 1.60

Documented log10 Ki of `OB(O)c1cc2ccccc2c2ccccc12` : 1.49

Documented log10 Ki of O=Cc1ccc(B(O)O)cc1 [4FORMB, 4-formylphenylboronate, reference compound] : 1.54

Documented log10 Ki of `OB(O)c1ccc(C(F)(F)F)cc1` : 0.80

Documented log10 Ki of `C1COB([C@@H]2CCOC2)OCCN1` : 1.43
